The measured values listed here are drawn from PubChem BioAssay AID248.

# Tested on: L1210 leukemia ip in BDF1 mice, survival T/C
# measurementNotes: NCI In Vivo Anticancer Drug Screen. Data for tumor model L1210 Leukemia (intraperitoneal) in B6D2F1 (BDF1) mice
# studyConditions: endpoint: mean survival time; dose: 100.0 mg/kg/injection; schedule: Q01DX Z (ip); vehicle: carboxymethylcellulose (CMC)
Toxic doses and inconclusive results are not listed. Rule as the data show it: active = T/C of 150% or more; inactive = T/C below 125%.
Write down one outcome, taken from true (1) (active), false (0) (inactive)

Prompt line: Please state the recorded outcome for this molecule: "CN(N=O)C(=O)Nc1ccccc1"
Response line: false (0)

Prompt line: Please state the recorded outcome for this molecule: "Cc1nc(N)[nH]c(=O)c1CCCNc1ccc(CCC(=O)CCl)cc1"
Response line: false (0)

Prompt line: Please state the recorded outcome for this molecule: "O=C(Nc1ccc(C2=NCCN2)cc1)c1ccc(C(=O)Nc2ccc(C3=NCCN3)cc2)c(NC(=O)c2ccc(C(=O)Nc3cc(C(=O)Nc4ccc(C5=NCCN5)cc4)ccc3C(=O)Nc3ccc(C4=NCCN4)cc3)cc2)c1"
Response line: true (1)

Prompt line: Please state the recorded outcome for this molecule: "CCOC(=O)NO"
Response line: false (0)

* * *

Record form. Attribute: T/C. Fill in for each entry.
# Tested on: L1210 leukemia ip in BDF1 mice, survival T/C
# measurementNotes: NCI In Vivo Anticancer Drug Screen. Data for tumor model L1210 Leukemia (intraperitoneal) in B6D2F1 (BDF1) mice
# studyConditions: endpoint: mean survival time; dose: 400.0 mg/kg/injection; schedule: Q01DX001 (ip); vehicle: saline; higher = longer survival
Toxic doses and inconclusive results are not listed.

Prompt line: Hello, please tell me recorded T/C for this one: "CN(C)CCC#N"
Response line: 97 % of control

Prompt line: Hello, please tell me recorded T/C for this one: "O=[N+]([O-])c1ccccc1SSSc1ccccc1[N+](=O)[O-]"
Response line: 101 % of control

Prompt line: Hello, please tell me recorded T/C for this one: C=C1C2CCC3(C)C(c4ccoc4)OC(=O)CC13OC1CC(=O)C(C)(C)C(CC(=O)OC)C12C (stereo not given)
Response line: 114 % of control

Prompt line: Hello, please tell me recorded T/C for this one: CNC1C(OC2C(OC3C(O)C(O)C(N=C(N)N)C(O)C3N=C(N)N)OC(C)C2(O)C=O)OC(CO)C(O)C1O (stereo not given)
Response line: 114 % of control

Prompt line: Hello, please tell me recorded T/C for this one: CC(=O)OCC1OC(COC(C)=O)(c2ccc(C)cc2)C(OC(C)=O)C1OC(C)=O (stereo not given)
Response line: 100 % of control

* * *

# Test system: L1210 leukemia ip in BDF1 mice, survival T/C
# measurementNotes: NCI In Vivo Anticancer Drug Screen. Data for tumor model L1210 Leukemia (intraperitoneal) in B6D2F1 (BDF1) mice
# studyConditions: endpoint: mean survival time; dose: 10.0 mg/kg/injection; schedule: Q01DX001 (ip); vehicle: saline; higher = longer survival
Inconclusive results and toxic doses are left out.
valueType: T/C

Prompt line: Hello, please tell me recorded T/C for this one: "O=C(O)C=C(CBr)CBr"
Response line: 93 % of control

Prompt line: Hello, please tell me recorded T/C for this one: "COc1ccc(OC)c(CBr)c1CBr"
Response line: 98 % of control

Prompt line: Hello, please tell me recorded T/C for this one: "CCCCNC1=C(N2CC2)C(=O)C(NCCCC)=C(N2CC2)C1=O"
Response line: 105 % of control

Prompt line: Hello, please tell me recorded T/C for this one: C1=COC(/C=N/Nc2nnc(N/N=C/C3CCC=CO3)c3ccccc23)CC1 (configuration not stated)
Response line: 111 % of control

Prompt line: Hello, please tell me recorded T/C for this one: C/C(=N\NC(N)=S)C1OCCc2ccccc21 (configuration not stated)
Response line: 90 % of control

Prompt line: Hello, please tell me recorded T/C for this one: Nc1nc2c(ncn2C2OC(CO)C(O)C2O)c(=O)[nH]1 (configuration not stated)
Response line: 105 % of control

Prompt line: Hello, please tell me recorded T/C for this one: CNc1ncnc2c1c(Br)cn2C1OC(CO)C(O)C1O (configuration not stated)
Response line: 104 % of control
